Tested on: T. gondii RH-GFP
Assay: microbe, parasite or virus in culture
Format: cell-based, Toxoplasma gondii
Conditions: Toxoplasma gondii, HS27, 96 h; read-out: IC50 (50% inhibition of T. gondii proliferation)
Records here are stratified by IC50; strata: lower range = under 5 µg/mL, middle range = from 5 µg/mL up to 9 µg/mL, upper range = 9 µg/mL and over

Reference set (5 entries):
Cc1nc[nH]c1-c1nnc(Nc2ccc(I)cc2)s1 [12b] | lower range
Cc1nc[nH]c1-c1nnc(Nc2cccc(Br)c2)s1 [8b] | lower range
Cc1nc[nH]c1-c1nnc(Nc2ccccc2F)s1 [1b] | upper range
Cc1nc[nH]c1-c1nnc(Nc2ccc(Cl)cc2)s1 [6b] | middle range
Cc1nc[nH]c1-c1nnc(Nc2cccc(I)c2)s1 [11b] | lower range

Which category does the recorded IC50 put O=C1C(O)=C([C@H]2CC[C@H](c3ccc(Cl)cc3)CC2)C(=O)c2ccccc21 [Atovaquone (ATO), Atovaquone, reference compound] in?
lower range

Which category does the recorded IC50 put Cc1nc[nH]c1-c1nnc(Nc2cccc(F)c2)s1 [2b] in?
middle range

Which category does the recorded IC50 put Cc1nc[nH]c1-c1nnc(Nc2ccccc2Cl)s1 [4b] in?
upper range

Which category does the recorded IC50 put Cc1nc[nH]c1-c1nnc(Nc2ccc(F)cc2)s1 [3b] in?
upper range

Which category does the recorded IC50 put Cc1nc[nH]c1-c1nnc(Nc2ccc(Br)cc2)s1 [9b] in?
middle range

Which category does the recorded IC50 put Cc1nc[nH]c1-c1nnc(Nc2ccccc2I)s1 [10b] in?
upper range

Which category does the recorded IC50 put Cc1nc[nH]c1-c1nnc(Nc2cccc(Cl)c2)s1 [5b] in?
lower range

====

Tested on: T. gondii RH-GFP
Test: microbe, parasite or virus in culture
Format: cell-based, Toxoplasma gondii
Conditions: ratio of CC30 (Hs27) to IC50 (T. gondii); 1b–12b and positive controls
Please use True for SI (selectivity index, CC30/IC50) under 4 and False for everything else, ties included.

Reference set (3 entries):
Cc1nc[nH]c1-c1nnc(Nc2ccccc2Cl)s1 | True
COc1cc(Cc2cnc(N)nc2N)cc(OC)c1OC [Trimethoprim (TRI), Trimethoprim, reference compound] | True
O=C1C(O)=C([C@H]2CC[C@H](c3ccc(Cl)cc3)CC2)C(=O)c2ccccc21 [Atovaquone (ATO), Atovaquone, reference compound] | False

Given Cc1nc[nH]c1-c1nnc(Nc2cccc(Cl)c2)s1 , is recorded SI (selectivity index, CC30/IC50) strictly lower than 4?
False

Given CCc1nc(N)nc(N)c1-c1ccc(Cl)cc1 [Pyrimethamine (PYR), Pyrimethamine, reference compound] , is recorded SI (selectivity index, CC30/IC50) strictly lower than 4?
False

Given Cc1nc[nH]c1-c1nnc(Nc2cccc(I)c2)s1 [11b] , is recorded SI (selectivity index, CC30/IC50) strictly lower than 4?
False

Given Cc1nc[nH]c1-c1nnc(Nc2ccc(F)cc2)s1 , is recorded SI (selectivity index, CC30/IC50) strictly lower than 4?
True

Given Nc1ccc(S(=O)(=O)Nc2ncccn2)cc1 [Sulfadiazine (SUL), Sulfadiazine, reference compound] , is recorded SI (selectivity index, CC30/IC50) strictly lower than 4?
True

Given Cc1nc[nH]c1-c1nnc(Nc2cccc(F)c2)s1 , is recorded SI (selectivity index, CC30/IC50) strictly lower than 4?
True

Given Cc1nc[nH]c1-c1nnc(Nc2ccc(Cl)cc2)s1 , is recorded SI (selectivity index, CC30/IC50) strictly lower than 4?
False

Given Cc1nc[nH]c1-c1nnc(Nc2ccccc2Br)s1 , is recorded SI (selectivity index, CC30/IC50) strictly lower than 4?
True

Given Cc1nc[nH]c1-c1nnc(Nc2cccc(Br)c2)s1 , is recorded SI (selectivity index, CC30/IC50) strictly lower than 4?
False

Given Cc1nc[nH]c1-c1nnc(Nc2ccc(I)cc2)s1 [12b] , is recorded SI (selectivity index, CC30/IC50) strictly lower than 4?
False

Given Cc1nc[nH]c1-c1nnc(Nc2ccccc2I)s1 [10b] , is recorded SI (selectivity index, CC30/IC50) strictly lower than 4?
False

====

System: Hs27 (human foreskin fibroblast)
Experiment: Cytotoxicity assay (MTT)
Assay type: cell-based
Details: 24 h treatment
MEASURE: CC30 (cytotoxic concentration causing 30% of cells proliferation inhibition) (µg/mL)
Kindly provide the numeric value in µg/mL only, without the unit symbol.

Below are worked cases with known answers.
Cc1nc[nH]c1-c1nnc(Nc2ccccc2Br)s1 [7b] | 29.71
Cc1nc[nH]c1C(=O)NNC(=S)Nc1ccc(I)cc1 [12a] | 71.58
Cc1nc[nH]c1C(=O)NNC(=S)Nc1ccccc1F [1a] | 289.60

State measured CC30 (cytotoxic concentration causing 30% of cells proliferation inhibition) of the compound Cc1nc[nH]c1-c1nnc(Nc2ccc(Cl)cc2)s1 [6b] with Hs27 (human foreskin fibroblast).
45.97

State measured CC30 (cytotoxic concentration causing 30% of cells proliferation inhibition) of the compound Cc1nc[nH]c1-c1nnc(Nc2ccc(I)cc2)s1 [12b] with Hs27 (human foreskin fibroblast).
98.18

State measured CC30 (cytotoxic concentration causing 30% of cells proliferation inhibition) of the compound Cc1nc[nH]c1-c1nnc(Nc2ccccc2I)s1 [10b] with Hs27 (human foreskin fibroblast).
89.54

====

Test system: Hs27 (human foreskin fibroblast)
Assay: Cytotoxicity assay (MTT)
Assay type: cell-based
Conditions: 24 h treatment
Measured CC30 (cytotoxic concentration causing 30% of cells proliferation inhibition) by item
Kindly provide the numeric value in µg/mL only, without the unit symbol.

Cc1nc[nH]c1C(=O)NNC(=S)Nc1cccc(I)c1 [11a] | 85.57
Cc1nc[nH]c1-c1nnc(Nc2ccc(F)cc2)s1 [3b] | 26.17
Cc1nc[nH]c1-c1nnc(Nc2cccc(I)c2)s1 [11b] | 36.48
O=C1C(O)=C([C@H]2CC[C@H](c3ccc(Cl)cc3)CC2)C(=O)c2ccccc21 [Atovaquone (ATO), Atovaquone, reference compound] | 54.26
Cc1nc[nH]c1-c1nnc(Nc2cccc(F)c2)s1 [2b] | 18.96

Answer with the recorded CC30 (cytotoxic concentration causing 30% of cells proliferation inhibition) of Nc1ccc(S(=O)(=O)Nc2ncccn2)cc1 [Sulfadiazine (SUL), Sulfadiazine, reference compound] only.
2230.61

Answer with the recorded CC30 (cytotoxic concentration causing 30% of cells proliferation inhibition) of Cc1nc[nH]c1C(=O)NNC(=S)Nc1ccc(F)cc1 [3a] only.
266.20

====

System: Hs27 (human foreskin fibroblast)
Assay: Cytotoxicity assay (MTT)
Assay type: cell-based
Details: 24 h treatment
MEASURE: CC30 (cytotoxic concentration causing 30% of cells proliferation inhibition) (µg/mL)
Kindly provide the numeric value in µg/mL only, without the unit symbol.

Cc1nc[nH]c1C(=O)NNC(=S)Nc1cccc(Br)c1 [8a] | 96.12
Cc1nc[nH]c1C(=O)NNC(=S)Nc1ccccc1Br [7a] | 205.31
Cc1nc[nH]c1C(=O)NNC(=S)Nc1cccc(F)c1 [2a] | 125.17
Cc1nc[nH]c1C(=O)NNC(=S)Nc1ccccc1Cl [4a] | 143.15
Cc1nc[nH]c1C(=O)NNC(=S)Nc1ccccc1I [10a] | 101.58

State measured CC30 (cytotoxic concentration causing 30% of cells proliferation inhibition) of the molecule Cc1nc[nH]c1C(=O)NNC(=S)Nc1ccc(Br)cc1 [9a] with Hs27 (human foreskin fibroblast).
48.89

State measured CC30 (cytotoxic concentration causing 30% of cells proliferation inhibition) of the molecule Cc1nc[nH]c1-c1nnc(Nc2ccccc2F)s1 [1b] with Hs27 (human foreskin fibroblast).
157.71

State measured CC30 (cytotoxic concentration causing 30% of cells proliferation inhibition) of the molecule CCc1nc(N)nc(N)c1-c1ccc(Cl)cc1 [Pyrimethamine (PYR), Pyrimethamine, reference compound] with Hs27 (human foreskin fibroblast).
45.26

State measured CC30 (cytotoxic concentration causing 30% of cells proliferation inhibition) of the molecule Cc1nc[nH]c1C(=O)NNC(=S)Nc1cccc(Cl)c1 [5a] with Hs27 (human foreskin fibroblast).
96.78

State measured CC30 (cytotoxic concentration causing 30% of cells proliferation inhibition) of the molecule Cc1nc[nH]c1-c1nnc(Nc2ccccc2Cl)s1 [4b] with Hs27 (human foreskin fibroblast).
24.69

State measured CC30 (cytotoxic concentration causing 30% of cells proliferation inhibition) of the molecule Cc1nc[nH]c1-c1nnc(Nc2ccc(Br)cc2)s1 [9b] with Hs27 (human foreskin fibroblast).
21.52

State measured CC30 (cytotoxic concentration causing 30% of cells proliferation inhibition) of the molecule Cc1nc[nH]c1-c1nnc(Nc2cccc(Cl)c2)s1 [5b] with Hs27 (human foreskin fibroblast).
17.88

====

Measured CC30 (cytotoxic concentration causing 30% of cells proliferation inhibition) by item
System: Hs27 (human foreskin fibroblast)
Test: Cytotoxicity assay (MTT)
Type: cell-based
Conditions: 24 h treatment
Kindly provide the numeric value in µg/mL only, without the unit symbol.

Answer with the recorded CC30 (cytotoxic concentration causing 30% of cells proliferation inhibition) of Cc1nc[nH]c1C(=O)NNC(=S)Nc1ccc(Cl)cc1 only.
94.12

Answer with the recorded CC30 (cytotoxic concentration causing 30% of cells proliferation inhibition) of COc1cc(Cc2cnc(N)nc2N)cc(OC)c1OC [Trimethoprim (TRI), Trimethoprim, reference compound] only.
17.78

Answer with the recorded CC30 (cytotoxic concentration causing 30% of cells proliferation inhibition) of Cc1nc[nH]c1-c1nnc(Nc2cccc(Br)c2)s1 only.
20.55
